Taken from ChEMBL document CHEMBL4373642.

# System: Klebsiella pneumoniae
# assay.protocol: Antibacterial activity against Klebsiella pneumoniae ATCC 13883 assessed as reduction in bacterial growth incubated for 18 to 24 hrs by broth microdilution method
# Format: functional
value.type: MIC

1. O=C(O)c1cn(C2CC2)c2cc(N3CCN(CCCn4cc(CNc5ccc([N+](=O)[O-])c6nonc56)nn4)CC3)c(F)cc2c1=O; 8 to 16 µg/mL
2. CN(C)c1ccc2c(CC(=O)NCc3cn(CCCN4CCN(c5cc6c(cc5F)c(=O)c(C(=O)O)cn6C5CC5)CC4)nn3)cc(=O)oc2c1; 4 to 32 µg/mL
3. [N-]=[N+]=NCCCN1CCN(c2cc3c(cc2F)c(=O)c(C(=O)O)cn3C2CC2)CC1; 0.125 to 0.25 µg/mL
4. O=C(O)c1cn(C2CC2)c2cc(N3CCNCC3)c(F)cc2c1=O [CIPROFLOXACIN]; 0.015 to 0.06 µg/mL
